Collected Ki values appear next to each entry.
Biological target: human recombinant A1 adenosine receptor (Homo sapiens, UniProt P30542)
Sequence (P30542 1-326): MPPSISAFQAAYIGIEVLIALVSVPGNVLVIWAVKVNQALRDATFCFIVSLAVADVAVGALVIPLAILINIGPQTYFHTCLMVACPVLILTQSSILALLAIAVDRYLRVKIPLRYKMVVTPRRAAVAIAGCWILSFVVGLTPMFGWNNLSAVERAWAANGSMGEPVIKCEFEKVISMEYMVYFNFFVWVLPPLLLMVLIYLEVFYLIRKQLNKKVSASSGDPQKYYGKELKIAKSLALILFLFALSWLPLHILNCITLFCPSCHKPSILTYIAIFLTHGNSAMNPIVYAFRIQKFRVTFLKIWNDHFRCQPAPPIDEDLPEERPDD
Experiment: [3H]-DPCPX binding to human A1 adenosine receptor expressed in CHO cells

Take a look at these entries with their results.
>  <Chem smiles>
CCCn1c(=O)c2c(nc3n2CC(C)=C3)n(Cc2ccccc2)c1=O

>  <Test result>
3030 nM

$$$$
>  <Chem smiles>
CCCn1c(=O)c2c(nc3n2CC(c2ccccc2)=NN3CCO)n(Cc2ccccc2)c1=O

>  <Test result>
> 1000 nM

$$$$
>  <Chem smiles>
CCCn1c(=O)c2c(nc3n2CC(c2ccccc2)=NN3C)n(Cc2ccccc2)c1=O

>  <Test result>
> 1000 nM

$$$$

Inquiry: Item `Cc1cn2c(nc3c2c(=O)n(C)c(=O)n3C)[nH]1` has what recorded Ki?
Reply text: > 1000 nM
